Listed here: items and their measured switch fluorescence ratio.
System: ATP;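 further: ATP exposure 15 min at 22 °C before imaging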
TEST_PROTOCOL: switch fluorescence ratio, 500 uM ATP over buffer (Cy3 cluster intensity, sum of 5 cycles each) (fold (ratio)); higher = stronger signal-on switching upon ATP binding; sequences stand for … in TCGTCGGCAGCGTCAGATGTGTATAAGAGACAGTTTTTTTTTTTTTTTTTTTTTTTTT…TC
PROTOCOL_CONDITIONS: aptamer strand: ATP DNA aptamer (quencher-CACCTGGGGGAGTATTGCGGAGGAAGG + anchor), 100 nM annealed; ATP concentration: 500 uM

Before answering, review these 4 worked examples.
>>> df
   record_sequence  assayed_system  observed
0       GCTCGATGTG             ATP         1
1       CTAGGTGTGT             ATP      1.02
2       TAAACCGGGT             ATP      1.05
3       GATAGGATTG             ATP     0.987

Read the entry TTTTTCAGTT and write its reported switch fluorescence ratio.
1

Consider the sequence TTTTGTATAA and give its recorded switch fluorescence ratio.
1.02

* * *

System: ATP;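 further: ATP exposure 15 min at 22 °C before imaging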
TEST_PROTOCOL: switch fluorescence ratio, 500 uM ATP over buffer (Cy3 cluster intensity, sum of 5 cycles each) (fold (ratio)); higher = stronger signal-on switching upon ATP binding; sequences stand for … in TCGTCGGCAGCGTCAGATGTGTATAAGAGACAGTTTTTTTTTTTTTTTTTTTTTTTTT…TC
PROTOCOL_CONDITIONS: aptamer strand: ATP DNA aptamer (quencher-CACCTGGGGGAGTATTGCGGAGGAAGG + anchor), 100 nM annealed; ATP concentration: 500 uM
RESULT_TYPE: switch fluorescence ratio
Number, no unit, nothing else.

Solved cases below.
>>> print(df.to_string())
   record_sequence                result_type  observed
0       CAGTGTGTGG  switch fluorescence ratio      0.97
1       GGTTCTGAGC  switch fluorescence ratio     0.986

Entry TGGTGAGGGA needs its switch fluorescence ratio filled in; supply it.
0.99

Recall and state the measured switch fluorescence ratio for CGAGTCCGTT .
0.99

Retrieve switch fluorescence ratio measured for AGGGTAAATA and print it.
1.02

Determine its reported switch fluorescence ratio: GTTTACGCAC
1.75

Look up switch fluorescence ratio of GGGGCGCCTC and report it.
0.992

* * *

Item-by-item account of switch fluorescence ratio
System: ATP;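 further: ATP exposure 15 min at 22 °C before imaging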
TEST_PROTOCOL: switch fluorescence ratio, 500 uM ATP over buffer (Cy3 cluster intensity, sum of 5 cycles each) (fold (ratio)); higher = stronger signal-on switching upon ATP binding; sequences stand for … in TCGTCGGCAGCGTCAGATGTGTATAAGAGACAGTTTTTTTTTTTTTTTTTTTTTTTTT…TC
PROTOCOL_CONDITIONS: aptamer strand: ATP DNA aptamer (quencher-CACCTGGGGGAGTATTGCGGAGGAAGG + anchor), 100 nM annealed; ATP concentration: 500 uM
I'd appreciate a reply containing only the number, no unit.

Reference set (3 entries):
In [3]: df
Out[3]:
   record_sequence  observed
0       TGTAAGACCA      1.01
1       CGTGTACATC      1.01
2       GGGGGATGGA         1

Here is another sequence to look at.
Give the reported value of switch fluorescence ratio for this record: TATCATTGGG
0.968

* * *

Tested on: ATP;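 further: ATP exposure 15 min at 22 °C before imaging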
TEST_PROTOCOL: switch fluorescence ratio, 500 uM ATP over buffer (Cy3 cluster intensity, sum of 5 cycles each) (fold (ratio)); higher = stronger signal-on switching upon ATP binding; sequences stand for … in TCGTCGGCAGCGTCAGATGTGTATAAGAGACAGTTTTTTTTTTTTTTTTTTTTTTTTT…TC
PROTOCOL_CONDITIONS: aptamer strand: ATP DNA aptamer (quencher-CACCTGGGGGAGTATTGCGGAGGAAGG + anchor), 100 nM annealed; ATP concentration: 500 uM
Listed sequences paired with reported switch fluorescence ratio
API doc: respond with a numeric literal and nothing else, no unit.

>>> print(df.to_string())
   record_sequence  observed
0       GCTTTCAGGG      1.01
1       TATTGAACGA         1
2       GCGGTTCCTG     0.983
3       AAAAGACGTT         1
4       CGGCTTGCGG      1.03

Param request: switch fluorescence ratio | system ATP | item GGGGCTGTGG;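 further: ATP exposure 15 min at 22 °C before imaging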
0.993

Supply switch fluorescence ratio measured with ATP for TTAATAGATG .
1

Find the measured switch fluorescence ratio of CTAGTTAGGG with ATP as test system.
0.964

Supply switch fluorescence ratio measured with ATP for GCGTGGAGGG .
1.01

Enter measured switch fluorescence ratio, system ATP, for the sequence shown: ATTTTACGAT;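 further: ATP exposure 15 min at 22 °C before imaging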
0.999

Report its switch fluorescence ratio with ATP as the test system: TGGTGACCGT
1

Provide ATP switch fluorescence ratio reading for TATATTCTTA .
1

Please tell me the measured switch fluorescence ratio for TTATGTACGT ; system: ATP.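 Further: ATP exposure 15 min at 22 °C before imaging.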
1.09

Return reported switch fluorescence ratio for target or system ATP, item TGTTGGCGGG .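 Further: ATP exposure 15 min at 22 °C before imaging.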
0.989

For ATP, give the measured switch fluorescence ratio of the entry GATCGGGTTG
0.999

GET switch fluorescence ratio | system: ATP | item: ATGAGGTTTC;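 further: ATP exposure 15 min at 22 °C before imaging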
0.989

Look up and report switch fluorescence ratio, with ATP as system, for CGGGTGCGGG
1.02

State the measured switch fluorescence ratio (ATP) of GGGTCATTAA
0.991

GET switch fluorescence ratio where system = ATP and item = TGCACGGGGG;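 further: ATP exposure 15 min at 22 °C before imaging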
1.03

Answer with switch fluorescence ratio of TGATTAGGGG measured for ATP.
0.995

* * *

Tested on: ATP;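 further: ATP exposure 15 min at 22 °C before imaging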
TEST_PROTOCOL: switch fluorescence ratio, 500 uM ATP over buffer (Cy3 cluster intensity, sum of 5 cycles each) (fold (ratio)); higher = stronger signal-on switching upon ATP binding; sequences stand for … in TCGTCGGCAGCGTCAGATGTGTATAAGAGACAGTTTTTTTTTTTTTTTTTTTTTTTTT…TC
PROTOCOL_CONDITIONS: aptamer strand: ATP DNA aptamer (quencher-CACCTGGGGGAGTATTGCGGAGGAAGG + anchor), 100 nM annealed; ATP concentration: 500 uM
RESULT_TYPE: switch fluorescence ratio
Response field accepts a number only; no unit should be typed.

Look over these answered cases.
>>> print(df.to_string())
   record_sequence  observed
0       AAACCATCCG      1.63
1       TTTTCTCGCT     0.967
2       AGGGGTGTCC      1.01

Tell us which switch fluorescence ratio value is on record for GATGAGTTGT
0.961

* * *

Test system: ATP;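 further: ATP exposure 15 min at 22 °C before imaging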
TEST_PROTOCOL: switch fluorescence ratio, 500 uM ATP over buffer (Cy3 cluster intensity, sum of 5 cycles each) (fold (ratio)); higher = stronger signal-on switching upon ATP binding; sequences stand for … in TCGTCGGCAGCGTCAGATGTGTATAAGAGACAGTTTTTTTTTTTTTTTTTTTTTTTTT…TC
PROTOCOL_CONDITIONS: aptamer strand: ATP DNA aptamer (quencher-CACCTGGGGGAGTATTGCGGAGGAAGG + anchor), 100 nM annealed; ATP concentration: 500 uM
Label false (0) if switch fluorescence ratio falls below 1; label true (1) in every other case.

Field: example entries. Status: answers known.
>>> print(df.to_string())
   record_sequence  label_class
0       GCCAGAGATA     true (1)
1       CTGGAAATGG     true (1)
2       TTTCGCAGAA     true (1)
3       ACTATCCAGG     true (1)
4       TTCAGCGCGA     true (1)

Check the entry CAAATGCCCG : does switch fluorescence ratio equal or exceed 1?
false (0)

Could you tell me if the measured switch fluorescence ratio of ATGTACTGGG reaches 1 or more?
true (1)

# check: switch fluorescence ratio of AAGCAGTACC is greater than or equal to 1
true (1)

Identify whether the reported switch fluorescence ratio of the following sequence is 1 or greater: GGATGCAGGA
true (1)

Is the recorded value of switch fluorescence ratio equal to or greater than 1 for this sequence? ATGCGTCGGA
true (1)

Check if switch fluorescence ratio >= 1 (inclusive). Item: AGCAAGTCAG
true (1)

Confirm if switch fluorescence ratio reported for the sequence CATTAAAGCC is 1 or above.
false (0)

Kindly determine if switch fluorescence ratio recorded for TTTTGTGGTA is above or exactly 1.
true (1)

Evaluate GATGTTGTAC : switch fluorescence ratio at minimum 1?
true (1)

Tell me whether switch fluorescence ratio is at least 1 here: TTTCTCCGTT
true (1)

Exam item: decide whether the reported switch fluorescence ratio for GATTACAGGG is at least 1.
false (0)

* * *

Below, each of the sequences is paired with its reported switch fluorescence ratio value.
Test system: ATP;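 further: ATP exposure 15 min at 22 °C before imaging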
TEST_PROTOCOL: switch fluorescence ratio, 500 uM ATP over buffer (Cy3 cluster intensity, sum of 5 cycles each) (fold (ratio)); higher = stronger signal-on switching upon ATP binding; sequences stand for … in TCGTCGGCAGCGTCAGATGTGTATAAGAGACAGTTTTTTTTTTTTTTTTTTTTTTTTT…TC
PROTOCOL_CONDITIONS: aptamer strand: ATP DNA aptamer (quencher-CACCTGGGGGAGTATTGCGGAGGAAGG + anchor), 100 nM annealed; ATP concentration: 500 uM
// no unit string in output, number only

For orientation, consider the following solved cases.
>>> df
   record_sequence  observed
0       TATATTTAAG      1.01
1       TTTCATCGCC      1.01
2       GAGGGTTCCG      1.01
3       TTTTATGGTG     0.994
4       GGCCGGAATT      1.17
5       CTGCTTAAGG      1.04

Identify measured switch fluorescence ratio corresponding to TAGTGTCTTT
0.993

For the sequence GCATGACTTT , give its measured switch fluorescence ratio value.
1.06

Return switch fluorescence ratio for the following sequence: ACTATGTGGT
0.997

Supply switch fluorescence ratio value. Item: GAGGGTCGTG
0.963
